# Lookup of reported Projected CL keyed by entry
Protocol Details: Projected single-dose CL and Vss values in humans (allometric scaling of mouse, rat, dog, monkey IV PK)
Study Conditions: human, projected by allometric scaling from single-dose IV PK
# unit: mL/min/kg | format: bare number

The examples below pair each entry with its known result.
molecule="C[C@H]1CC[C@H](N2CC(=O)N(Cc3ccc(F)c(F)c3)C3(CN(C=O)C3)C2=O)CC1 [Compound 4]" test_result=1.84
molecule="O=CN1CC2(C1)C(=O)N(c1ccc(F)cc1F)CC(=O)N2Cc1ccc(Cl)cc1 [Comparator A, reference compound]" test_result=1.44

Now for the molecule whose Projected CL we want.
Enquiry: Tell me measured Projected CL for C[C@H]1CC[C@H](N2CC(=O)N(Cc3ccc(Cl)cc3)C3(CN(C(N)=O)C3)C2=O)CC1 [Compound 18] please.
Return: 3.3

----------
Protocol Details: Dog single dose pharmacokinetics
Assay type: in vivo, beagle dogs
Study Conditions: male, beagle, plasma, IV
# Lookup of reported clearance keyed by entry
Quote the value and follow it with the unit of measurement.

cpd_smiles=C[C@H]1CC[C@H](N2CC(=O)N(Cc3ccc(Cl)cc3)C3(CN(C(N)=O)C3)C2=O)CC1 outcome_measure=clearance test_result="18.8 mL/min/kg"

Enquiry: Tell me measured clearance for CC(C)N1CC(=O)N(Cc2ccc(C(F)(F)F)cc2)C2(CN(c3cccnn3)C2)C1=O please.
Return: 7.45 mL/min/kg

----------
Test Target: CYP2B6 (Homo sapiens, UniProt P20813)
Construct: Pooled human microsomes and selective CYP probe substrates were used; from tissue; host or cells: pooled human liver microsomes
Sequence (P20813 1-491): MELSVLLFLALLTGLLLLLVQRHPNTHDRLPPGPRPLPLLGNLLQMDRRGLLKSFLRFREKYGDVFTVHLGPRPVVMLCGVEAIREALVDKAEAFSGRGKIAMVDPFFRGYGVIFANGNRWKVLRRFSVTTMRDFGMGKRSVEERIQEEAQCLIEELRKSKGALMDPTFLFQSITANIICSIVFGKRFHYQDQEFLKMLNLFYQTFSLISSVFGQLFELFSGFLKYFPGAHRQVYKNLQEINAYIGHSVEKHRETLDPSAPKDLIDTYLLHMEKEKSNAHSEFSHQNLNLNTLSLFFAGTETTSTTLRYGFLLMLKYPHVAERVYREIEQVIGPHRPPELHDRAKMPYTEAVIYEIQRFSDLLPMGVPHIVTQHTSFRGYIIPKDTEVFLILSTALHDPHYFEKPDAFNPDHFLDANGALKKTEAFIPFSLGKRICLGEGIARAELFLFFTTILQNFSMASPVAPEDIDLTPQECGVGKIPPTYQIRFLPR
Protocol Details: Time-dependent inhibition of CYP2B6 in human liver microsomes
Assay type: in vitro ADME
Study Conditions: pooled human liver microsomes; CYP2B6, 50 μM, human liver microsomes, after 30 minutes incubation; read-out: % Activity NADPH T30
Outcome Measure: activity at 30 min, 50 µM (%)
# unit: % | format: bare number

The examples below pair each entry with its known result.
cpd_smiles=CC(C)N1CC(=O)N(Cc2ccc(C(F)(F)F)cc2)C2(CN(c3cccnn3)C2)C1=O test_result=81
cpd_smiles=C[C@H]1CC[C@H](N2CC(=O)N(Cc3ccc(F)c(Cl)c3)C3(CN(C(N)=O)C3)C2=O)CC1 test_result=70

Enquiry: Tell me measured activity at 30 min, 50 µM for C[C@H]1CC[C@H](N2CC(=O)N(Cc3ccc(Cl)cc3)C3(CN(C(N)=O)C3)C2=O)CC1 please.
Return: 83

----------
Protocol Details: Dog cassette dosing pharmacokinetics
Format: in vivo, beagle dogs
Study Conditions: male, beagle, plasma, IV
# Lookup of reported clearance keyed by entry

molecule="CC[C@H]1CC[C@H](N2CC(=O)N(Cc3ccc(F)c(F)c3)C3(CN(C(N)=O)C3)C2=O)CC1 [Compound 11]" test_result="6.3 mL/min/kg"
molecule="CCC(CC)N1CC(=O)N(Cc2ccc(F)c(F)c2)C2(CN(c3cccnn3)C2)C1=O [Compound 15]" test_result="24.2 mL/min/kg"
molecule="C[C@H]1CC[C@H](N2CC(=O)N(Cc3ccc(Cl)cc3)C3(CN(c4cccnn4)C3)C2=O)CC1 [Compound 10]" test_result="36.3 mL/min/kg"
molecule="C[C@H]1CC[C@H](N2CC(=O)N(Cc3ccc(F)c(Cl)c3)C3(CN(C(N)=O)C3)C2=O)CC1 [Compound 7]" test_result="9.22 mL/min/kg"
molecule="C[C@H]1CC[C@H](N2CC(=O)N(Cc3ccc(Cl)cc3)C3(CN(C(N)=O)C3)C2=O)CC1 [Compound 18]" test_result="7.07 mL/min/kg"
molecule="CC[C@H]1CC[C@H](N2CC(=O)N(Cc3ccc(Cl)cc3)C3(CN(C(N)=O)C3)C2=O)CC1 [Compound 1]" test_result="3.65 mL/min/kg"

Now for the molecule whose clearance we want.
Enquiry: Tell me measured clearance for Cc1cc(CN2C(=O)CN([C@H]3CC[C@H](C)CC3)C(=O)C23CN(C(N)=O)C3)ccc1F [Compound 6] please.
Return: 9.08 mL/min/kg

----------
# Lookup of reported clearance keyed by entry
Protocol Details: Dog cassette dosing pharmacokinetics
Format: in vivo, beagle dogs
Study Conditions: male, beagle, plasma, IV
# unit: mL/min/kg | format: bare number

molecule="C[C@H]1CC[C@H](N2CC(=O)N(Cc3ccc(F)c(F)c3)C3(CN(c4cccnn4)C3)C2=O)CC1 [Compound 12]" outcome_measure=clearance unit_abbrev=mL/min/kg test_result=34.4
molecule="CC[C@H]1CC[C@H](N2CC(=O)N(Cc3ccc(F)cc3)C3(CN(C(N)=O)C3)C2=O)CC1 [Compound 2]" outcome_measure=clearance unit_abbrev=mL/min/kg test_result=4.06
molecule="C[C@H]1CC[C@H](N2CC(=O)N(Cc3ccc(F)c(F)c3)C3(CN(C(N)=O)C3)C2=O)CC1 [Compound 5]" outcome_measure=clearance unit_abbrev=mL/min/kg test_result=9.26
molecule="C[C@H]1CC[C@H](N2CC(=O)N(Cc3ccc(Cl)c(F)c3)C3(CN(C(N)=O)C3)C2=O)CC1 [Compound 3]" outcome_measure=clearance unit_abbrev=mL/min/kg test_result=7.16

Now for the molecule whose clearance we want.
Enquiry: Tell me measured clearance for CC(C)N1CC(=O)N(Cc2ccc(Cl)c(F)c2)C2(CN(c3cccnn3)C2)C1=O [Compound 8] please.
Return: 15.6

----------
Test Target: CYP2C8 (Homo sapiens, UniProt P10632)
Construct: Pooled human microsomes and selective CYP probe substrates were used; from tissue; host or cells: pooled human liver microsomes
Sequence (P10632 1-490): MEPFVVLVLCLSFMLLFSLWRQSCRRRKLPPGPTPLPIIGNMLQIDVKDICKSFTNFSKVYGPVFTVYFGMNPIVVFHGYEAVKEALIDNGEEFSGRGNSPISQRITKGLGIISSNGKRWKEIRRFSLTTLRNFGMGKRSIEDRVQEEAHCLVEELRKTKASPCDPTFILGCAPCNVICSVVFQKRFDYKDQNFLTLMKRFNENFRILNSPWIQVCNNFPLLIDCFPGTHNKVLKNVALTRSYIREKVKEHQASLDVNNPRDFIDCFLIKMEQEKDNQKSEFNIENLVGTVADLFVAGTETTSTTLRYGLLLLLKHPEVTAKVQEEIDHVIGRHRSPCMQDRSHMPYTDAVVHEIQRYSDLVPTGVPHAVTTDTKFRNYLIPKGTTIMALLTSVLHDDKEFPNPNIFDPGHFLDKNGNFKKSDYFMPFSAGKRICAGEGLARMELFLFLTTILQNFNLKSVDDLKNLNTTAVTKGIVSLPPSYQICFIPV
Protocol Details: Time-dependent inhibition of CYP2C8 in human liver microsomes
Format: in vitro ADME
Study Conditions: CYP2C8, 25 μM, fold change
Method: An assessment of the time-dependent Inhibitory Potential of the test compounds against Principal Human Cytochrome P450 Isozymes using Human Liver Microsomes was also carried out using standard methods (Grimm et al, Drug Metab. Dispos., July; 37(7):1355-70. doi: 10.1124/dmd.109.026716, 2009). […] LC-MS/MS was used to quantify metabolite formation. […]
Outcome Measure: (% Activity NADPH T0)/(% Activity NADPH T30)
Lab note: jot the number down without any unit.

The examples below pair each entry with its known result.
molecule="C[C@H]1CC[C@H](N2CC(=O)N(Cc3ccc(F)c(F)c3)C3(CN(C(N)=O)C3)C2=O)CC1 [Compound 5]" test_result=1.0
molecule="C[C@H]1CC[C@H](N2CC(=O)N(Cc3ccc(Cl)cc3)C3(CN(C(N)=O)C3)C2=O)CC1 [Compound 18]" test_result=0.7
molecule="Cc1cc(CN2C(=O)CN([C@H]3CC[C@H](C)CC3)C(=O)C23CN(C(N)=O)C3)ccc1F [Compound 6]" test_result=0.9

Now for the molecule whose (% Activity NADPH T0)/(% Activity NADPH T30) we want.
Enquiry: Give CYP2C8 (Homo sapiens, UniProt P10632) (% Activity NADPH T0)/(% Activity NADPH T30) for the following molecule: CC(C)N1CC(=O)N(Cc2ccc(Cl)c(F)c2)C2(CN(c3cccnn3)C2)C1=O [Compound 8]
Return: 1.0
